cytotoxicity at 70.5 h for assorted compounds
Test: Human HepG2 cell viability assay in 384 well format
Type: toxicity, cell-based
Set-up: dose 125 nL, time 70.5 hour; concentration not given beside the values
Settings: HepG2 cells, read-out: Inhibition
VALUE KIND: cytotoxicity at 70.5 h (%)

COMPOUND	VALUE KIND	RECORDED VALUE
Cn1nc(C(=O)N2CCCCC2c2nc3cc(F)ccc3[nH]2)ccc1=O (stereo unspecified)	cytotoxicity at 70.5 h	6.51
CCOCCC(=O)NCc1ccnc(NC2CC2)c1	cytotoxicity at 70.5 h	-3.85
O=C(c1ccc(N2CCCCCC2)nn1)N1CCc2ccccc21	cytotoxicity at 70.5 h	-3.2
N#Cc1cccc(S(=O)(=O)CCN2CCOC2=O)c1	cytotoxicity at 70.5 h	-8.07
CCOC(=O)N1CCN(C(=O)c2cc(OCC)c3ccoc3c2)CC1	cytotoxicity at 70.5 h	50
Cc1cc(C)nc(N2CCC(c3cc(CCO)[nH]n3)C2)n1 (stereo unspecified)	cytotoxicity at 70.5 h	-12.4
Cc1cc2c(cc1NC(N)=O)OCO2	cytotoxicity at 70.5 h	-4.79
Cc1cnn(CC(C)NCC(=O)NCCOc2ccccc2)c1 (stereo unspecified)	cytotoxicity at 70.5 h	11.7
CN1CCN(C(=O)c2nc3c(s2)CCCN3C(=O)C2CC2)CC1	cytotoxicity at 70.5 h	-3.93
CC(C)(CO)Nc1ccc(-c2nc(-c3ccccc3F)no2)cn1	cytotoxicity at 70.5 h	-5.95
O=C(Cc1cccc(F)c1)NCCNS(=O)(=O)C1CCCC1	cytotoxicity at 70.5 h	-12.5
CC(c1ncc(-c2ccccc2)o1)N1CCN(C(=O)N(C)C)CC1 (stereo unspecified)	cytotoxicity at 70.5 h	-2.55
COc1ccc(OC)c(Sc2ncccc2C(=O)NCCSC)c1	cytotoxicity at 70.5 h	-8.11
O=C(CCNC(=O)C1=Cc2ccccc2OC1)NCc1ccncc1	cytotoxicity at 70.5 h	-2.01
Cn1cc(C2CCCN2C(=O)CCCc2nc3ccccc3[nH]2)cn1 (stereo unspecified)	cytotoxicity at 70.5 h	4.56
Cc1nnc(C(C)NCC2(c3ccc(Cl)cc3)CCCC2)o1 (stereo unspecified)	cytotoxicity at 70.5 h	-7.22
Cc1csc(C2CCCN(C(=O)c3c[nH]c(C)n3)C2)n1 (stereo unspecified)	cytotoxicity at 70.5 h	-1.13
O=C(c1ccncn1)N1CCC[C@]2(C[C@H](Oc3ncccc3F)CO2)C1	cytotoxicity at 70.5 h	23.2
Cc1ncsc1CN1CCOC(C)(C(=O)N(C)C)C1 (stereo unspecified)	cytotoxicity at 70.5 h	20
O=C(NCCNc1ncccn1)N1CCCC(C(F)(F)F)C1 (stereo unspecified)	cytotoxicity at 70.5 h	-9.23
O=S(=O)(c1ccccc1Cl)N1CCC2(CC1)OCCS2	cytotoxicity at 70.5 h	-9.74
O=C(NCc1ccccc1)N1Cc2nc(COCC3CC3)oc2C1	cytotoxicity at 70.5 h	4.6
Cc1nnc2n1CCN(Cc1csc(Cc3ccccc3)n1)C2	cytotoxicity at 70.5 h	-34.1
Cc1nn(C)c(C)c1NC(=O)CNc1ccc(F)c(C(F)(F)F)c1	cytotoxicity at 70.5 h	-2.51
NC(=O)CN1CCC2(CC1)C[C@@H](O)[C@H](c1ccccc1)NC2=O	cytotoxicity at 70.5 h	-0.832
CC(C)CN1CCNC(=O)C12CCN(S(=O)(=O)c1ccc(F)cc1)CC2	cytotoxicity at 70.5 h	-3.61
O=c1[nH][nH]cc1-c1ccnc(NCCc2cccnc2)n1	cytotoxicity at 70.5 h	-2.07
Cc1cccc(NC(=O)CCC(=O)NCC(=O)c2ccccc2F)c1	cytotoxicity at 70.5 h	2.08
Cc1ccc(C2CN(C(=O)NCc3nnc4ccccn34)CCO2)o1 (stereo unspecified)	cytotoxicity at 70.5 h	-10.6
Cc1nc(C)n(CC2CCCN2Cc2cn3c(C)cccc3n2)n1 (stereo unspecified)	cytotoxicity at 70.5 h	-4.2
Cc1nc(CN2CCCCC2CCc2ccc(O)cc2)no1 (stereo unspecified)	cytotoxicity at 70.5 h	6.16
